Please respond with reported SH2 binding enrichment for every item in the list.
- TARGET UNDER TEST: Grb2 SH2 (UniProt P62993)
- Sequence (P62993 whole entry, looked up): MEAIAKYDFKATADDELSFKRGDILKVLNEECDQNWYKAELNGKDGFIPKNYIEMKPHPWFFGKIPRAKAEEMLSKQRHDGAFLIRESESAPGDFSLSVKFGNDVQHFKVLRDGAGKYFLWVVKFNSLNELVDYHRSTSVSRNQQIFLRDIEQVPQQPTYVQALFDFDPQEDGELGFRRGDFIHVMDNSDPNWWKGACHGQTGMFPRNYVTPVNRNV
- EXPERIMENT SUMMARY: SH2 binding enrichment of the phosphorylated peptide, bacterial display (enrichment ratio); higher = better substrate or ligand; peptides without Tyr show the background
Give bare numbers.

Example entries begin here.
ERMKVYVPIGF [EPHX1_Y393_T396I] :: 0.76
DAMQTYNGNDE [TSPAN7_Y131] :: 0.654
RAILLYEFVGK [NATD1_Y45_V42I_YF] :: 1.58
AVLSLCASGRT [ACTA2_Y145_Y145C] :: 0.807
ILGRTHFVNHE [NEDD4_Y627_Y627H_YF] :: 0.899

Hi, could you look up SH2 binding enrichment for each item in my list?
1. ERWLKYFPIEQ [HS3ST5_Y244]
2. FDAHNYHPLPV [OAT_Y55_G51D_YF]
3. PPPELYFVKVD [TERT_Y707]

1.25
0.731
1.18

Hi, could you look up SH2 binding enrichment for each item in my list?
1. LTVVIYVLVGR [EPHA3_Y561_I564V]
2. AAVNGYVFGGG [ECHS1_Y137_A138V]
3. SRDDFYETIAM [NPY1R_Y347_D346Y_YF]
4. PQDVTYARLHS [LILRB4_Y412_Q414R]
5. AIFWRYSKFFD [SH3PXD2B_Y45_R43W_YF]
6. TFGVVYKARNK [CDK2_Y19_YF]
7. PDGHEYIFVDP [PDGFRA_Y572_YF]
8. IKAGAYDFPSP [CAMK2A_Y230]

1. 3.76
2. 0.791
3. 0.947
4. 0.85
5. 1.05
6. 0.801
7. 0.662
8. 1.03

Hi, could you look up SH2 binding enrichment for each item in my list?
1. GKSHIYFWTLD [EML2_Y230_E235D]
2. KAFDMYSGDVM [FAM3D_Y122]
3. HSVLQYVGGVM [FGGY_Y136]

1: 0.703; 2: 0.829; 3: 0.961

Hi, could you look up SH2 binding enrichment for each item in my list?
1. EYGRRYGFSRQ [CCDC93_Y209]
2. AGVIIYTSRFQ [PFAS_Y538_A535V]
3. IRGNMYFENSF [EGFR_Y112_YF]

1: 0.676; 2: 0.791; 3: 0.895

###

- System: AncSZ
- EXPERIMENT SUMMARY: phosphorylation enrichment, bacterial display (enrichment ratio); higher = better substrate or ligand; peptides without Tyr show the background
Please respond with reported phosphorylation enrichment for every item in the list.
Numbers only.

ATKNDYWAMLA [WWOX_Y287_P282A] :: 1.17
TARWEYMHSPS [CPOX_Y429] :: 0.927
VGTKRYMALEV [ACVRL1_Y375_P378L] :: 0.691
LERYIYNPEEF [HLA-DPB1_Y59_R61P] :: 1.48
GADAIYDHVNE [UQCR10_Y44_I47V] :: 1.09
ATCKAYGQALA [TKT_Y321_R318C] :: 0.753
EEQKKYFNATK [SCN5A_Y1494_M1498T_YF] :: 0.607
KELANYYKLHH [AK7_Y390] :: 0.708

Hi, could you look up phosphorylation enrichment for each item in my list?
1. RLASVYTKRCS [CPT2_Y508_P504L]
2. KKFPDYIQIAR [SGMS2_Y59_M64R_YF]
3. MCITQYKRESQ [PRNP_Y218_E219K]
4. WQQQSYLDSEI [CTNNB1_Y30_G34E]

1. 0.917
2. 0.848
3. 0.875
4. 0.792

For the sequence NWGSPYKSDGC [ZNF347_Y261_N264D] , what phosphorylation enrichment is on record?
0.864

###

- TARGET UNDER TEST: Fes (UniProt P07332)
- Sequence (P07332 whole entry, looked up): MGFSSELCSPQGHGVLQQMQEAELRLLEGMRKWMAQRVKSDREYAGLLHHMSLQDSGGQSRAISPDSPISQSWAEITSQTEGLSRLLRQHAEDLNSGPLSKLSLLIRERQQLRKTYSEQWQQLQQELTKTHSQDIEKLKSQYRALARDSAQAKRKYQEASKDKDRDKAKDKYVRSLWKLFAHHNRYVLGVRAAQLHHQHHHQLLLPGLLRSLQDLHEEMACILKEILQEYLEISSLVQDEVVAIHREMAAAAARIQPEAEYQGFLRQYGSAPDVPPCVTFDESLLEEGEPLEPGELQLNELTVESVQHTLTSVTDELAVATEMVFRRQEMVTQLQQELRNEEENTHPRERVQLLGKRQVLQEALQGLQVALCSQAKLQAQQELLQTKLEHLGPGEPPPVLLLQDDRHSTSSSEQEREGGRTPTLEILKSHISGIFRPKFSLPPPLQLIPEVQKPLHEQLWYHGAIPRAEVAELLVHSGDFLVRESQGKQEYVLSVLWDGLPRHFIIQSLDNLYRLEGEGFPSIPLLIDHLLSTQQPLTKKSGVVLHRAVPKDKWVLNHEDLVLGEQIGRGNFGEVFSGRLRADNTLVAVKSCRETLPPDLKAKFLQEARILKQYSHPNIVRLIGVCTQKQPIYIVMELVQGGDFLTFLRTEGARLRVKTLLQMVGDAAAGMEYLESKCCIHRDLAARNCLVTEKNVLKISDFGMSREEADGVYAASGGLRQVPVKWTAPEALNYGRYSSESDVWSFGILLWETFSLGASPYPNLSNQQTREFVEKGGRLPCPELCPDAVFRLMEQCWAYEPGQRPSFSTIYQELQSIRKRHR
- EXPERIMENT SUMMARY: phosphorylation enrichment, bacterial display (enrichment ratio); higher = better substrate or ligand; peptides without Tyr show the background
PARAMETER: phosphorylation enrichment
One number for each entry.

Example entries begin here.
RRAKGYPINLF [ITGB2_Y125_D128N_YF] :: 0.571
FQKNIYSEELR [LMNA_Y211] :: 1.24

Hi, could you look up phosphorylation enrichment for each item in my list?
1. HEDPMYDIIRD [RP9_Y142]
2. ANNEYYFRVCA

[1.48, 1.4]

Hi, could you look up phosphorylation enrichment for each item in my list?
1. AVLSLCASGRT [ACTA2_Y145_Y145C]
2. WASGIYFVPKG [APBB1IP_Y340_R335W_YF]
3. AEYGLYGAMVR [VSX2_Y222]
4. TENAGYFFRIS
5. PVEAAYQKVVA [HBB_Y131_Q128E]
6. LYSINYLHFGE [KDM4C_Y201]
7. RKPDIYGRLAS [MCM4_Y459_E460G]
8. KQRKEYMHRRQ [IQGAP2_Y710]

1. 0.955
2. 0.993
3. 0.786
4. 1.42
5. 0.695
6. 1.57
7. 0.807
8. 0.715

###

- TARGET UNDER TEST: SHP2-C SH2
- EXPERIMENT SUMMARY: SH2 binding enrichment of the phosphorylated peptide, bacterial display (enrichment ratio); higher = better substrate or ligand; peptides without Tyr show the background
PARAMETER: SH2 binding enrichment
Give bare numbers.

Example entries begin here.
TFRPPYYHRNC [HGD_Y333] :: 1.86
RVLKLYGCSPS [ASTL_Y279] :: 0.93
LQRVQCDLQKA [DSP_Y1512_Y1512C] :: 0.558
PRPACYPSTVS [CACNA1C_Y1832_G1831C] :: 0.8
ESPGLCGFLNV [BCR_Y910_Y910C] :: 0.63
LPKVSYMKAID [GLRA1_Y307_V308M] :: 0.731

Hi, could you look up SH2 binding enrichment for each item in my list?
1. YAKSVYWDNTL [NUP107_Y296_E298D]
2. PIDLYYLMDLS [ITGB2_Y131]
3. ANNEYYFRVCA
4. TYEPNYGTVKR [RAPGEF6_Y1447_Q1452R]
5. LYSGDCYRIQG [DDR2_Y740_Y740C]
6. THLAPYSDELR [APOA1_Y190]
7. CSRRLYQLTKL [AR_Y858_F857L]

0.9
0.911
0.461
0.785
0.701
0.909
0.449

For the sequence LESETYRRLLD [KRT12_Y429_I426S] , what SH2 binding enrichment is on record?
0.911

###

- System: c-Src
- EXPERIMENT SUMMARY: phosphorylation enrichment, bacterial display (enrichment ratio); higher = better substrate or ligand; peptides without Tyr show the background
Quick rule for you: phosphorylation enrichment at 0.6 or higher means yes (1), lower means no (0).

Recorded results for 5 sequences are shown here.
HFGCVYHGTLL [MET_Y1093] :: yes (1)
VIESSYTSADG [DHCR7_Y382_C380S] :: no (0)
KLPDAYEPLIL [G6PD_Y437_R439P] :: yes (1)
NFGTNYRVGSS [CPO_Y278_K273N_YF] :: no (0)
KLFFIYTPGTT [SLC27A4_Y245_S247P_YF] :: no (0)

Can LFRFGYANTSE [SI_Y1233_C1229Y_YF] be said to have phosphorylation enrichment at or above 0.6?
no (0)

Can RELGKYGLQAY [ALDH2_Y497_E496K] be said to have phosphorylation enrichment at or above 0.6?
no (0)

###

- TARGET UNDER TEST: SHP2-C SH2
- EXPERIMENT SUMMARY: SH2 binding enrichment of the phosphorylated peptide, bacterial display (enrichment ratio); higher = better substrate or ligand; peptides without Tyr show the background
Quick rule for you: SH2 binding enrichment at 0.8 or higher means Y, lower means N.

Can MRAIIYNSSTA [PLEKHA7_Y243_L241I] be said to have SH2 binding enrichment at or above 0.8?
N

Can SLIDMYSEVPD [OPA1_Y268_L272P] be said to have SH2 binding enrichment at or above 0.8?
N

Can DSSIRYLQEIF [FGG_Y135_YF] be said to have SH2 binding enrichment at or above 0.8?
N

Can TFLRTYTDAMQ [TSPAN7_Y124] be said to have SH2 binding enrichment at or above 0.8?
Y

Can FIIFIYAMKKK [SLCO1B1_Y645_L643F_YF] be said to have SH2 binding enrichment at or above 0.8?
Y

###

- TARGET UNDER TEST: FGFR3 (UniProt P22607)
- Sequence (P22607 whole entry, looked up): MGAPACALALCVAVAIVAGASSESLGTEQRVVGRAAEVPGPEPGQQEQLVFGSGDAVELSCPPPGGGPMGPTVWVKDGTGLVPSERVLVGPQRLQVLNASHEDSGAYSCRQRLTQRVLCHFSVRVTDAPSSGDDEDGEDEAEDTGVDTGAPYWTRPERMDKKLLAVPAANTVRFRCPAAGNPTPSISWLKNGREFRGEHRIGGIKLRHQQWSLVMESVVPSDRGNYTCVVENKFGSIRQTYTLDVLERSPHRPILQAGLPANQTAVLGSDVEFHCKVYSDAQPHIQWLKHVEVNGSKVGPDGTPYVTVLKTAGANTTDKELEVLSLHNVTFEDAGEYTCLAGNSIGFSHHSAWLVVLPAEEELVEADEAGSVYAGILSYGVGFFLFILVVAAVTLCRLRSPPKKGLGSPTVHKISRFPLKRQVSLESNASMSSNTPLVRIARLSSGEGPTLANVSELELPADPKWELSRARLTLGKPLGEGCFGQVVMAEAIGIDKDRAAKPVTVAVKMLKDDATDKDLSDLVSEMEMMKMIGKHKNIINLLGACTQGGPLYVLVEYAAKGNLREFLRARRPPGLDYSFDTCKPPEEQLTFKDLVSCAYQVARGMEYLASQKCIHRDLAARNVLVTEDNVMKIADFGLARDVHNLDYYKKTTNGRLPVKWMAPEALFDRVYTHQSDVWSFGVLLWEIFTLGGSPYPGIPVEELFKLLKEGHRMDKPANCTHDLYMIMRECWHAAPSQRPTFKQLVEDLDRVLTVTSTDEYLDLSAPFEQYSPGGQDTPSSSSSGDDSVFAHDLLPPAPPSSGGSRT
- EXPERIMENT SUMMARY: phosphorylation enrichment, bacterial display (enrichment ratio); higher = better substrate or ligand; peptides without Tyr show the background
Please respond with reported phosphorylation enrichment for every item in the list.

LYSGDCYRIQG [DDR2_Y740_Y740C] :: 1.11
SLHPGYNFRFA [P2RX7_Y291_Y288H_YF] :: 0.524
DWQQEYVLNES [TGM1_Y267_R264Q] :: 0.996
YQLENYCNGGG [INS_Y108] :: 0.477
AIGYEYSEINI [SIGLEC12_Y588] :: 3.56
YIIFIYAMKKK [SLCO1B1_Y645_L643F] :: 0.507

Switching to the query record.
For the sequence KENITYMKSEQ [L1TD1_Y24_R27S] , what phosphorylation enrichment is on record?
0.524
